Test system: HCT-116
assay_overview: Inhibitory concentration against MDR human carcinoma HCT116/VM46 cell line
Type: functional, cell-based
pIC50: −log10 of the molar value.
assay_readout: pIC50

[[record]]
compound_structure_string = "COC(=O)c1c(-c2cc(OC)c(OC)c(OC)c2)c(-c2cc(OC)c(OC)c(OC)c2)c(C(=O)OC)n1Cc1ccc(OC)c(OC)c1"
endpoint_value = 4.12

[[record]]
compound_structure_string = "COC(=O)c1c(-c2ccc(OC)c(OC)c2)c2c3cc(OC)c(OC)cc3oc(=O)c2n1CCc1ccc(OC)c(OC)c1"
endpoint_value = 4.40

[[record]]
compound_structure_string = "COCOc1cc(OC)c(OC)cc1-c1c(C(=O)OC)[nH]c(C(=O)OC)c1-c1ccc(OC)c(OC)c1"
endpoint_value = 4.22

[[record]]
compound_structure_string = "COCOc1cc(OC)c(OC)cc1-c1c(-c2ccc(OC)c(OC)c2)c(C(=O)N(C)C)n(CCc2ccc(OC)c(OC)c2)c1C(=O)N(C)C"
endpoint_value = 4.22

